What pIC50 was measured for each of the following?
- ASSAY_NOTES: Inhibition of Escherichia coli RNAP assessed as incorporation of [5,6-3H]UTP preincubated for 10 mins followed by DNA template and ATP, CTP, GTP, UTP, [5,6-3H]UTP addition measured after 10 mins by scintillation counting analysis
// no unit string in output, number only

pIC50 reported for this compound CCN(Cc1ccccc1)C(=O)Nc1cc(-c2ccc(Cl)c(Cl)c2)sc1C(=O)O : 4.66

pIC50 reported for this compound CCN(Cc1ccccc1)C(=O)Nc1cc(-c2cccc(Cl)c2)sc1C(=O)O : 4.14

pIC50 reported for this compound CCN(Cc1ccccc1)C(=O)Nc1cc(-c2cc(Cl)cc(Cl)c2)sc1C(=O)O : 4.6

pIC50 reported for this compound CCN(Cc1ccccc1)C(=O)Nc1cc(-c2ccc(C#N)cc2)sc1C(=O)O : 3.88

pIC50 reported for this compound CCN(Cc1ccccc1)C(=O)Nc1cc(-c2ccc(OC(F)(F)F)cc2)sc1C(=O)O : 4.35
